- target-system: CFTR (Homo sapiens, UniProt P13569)
- Sequence (P13569 with tags, fused parts or gaps DEL508-508): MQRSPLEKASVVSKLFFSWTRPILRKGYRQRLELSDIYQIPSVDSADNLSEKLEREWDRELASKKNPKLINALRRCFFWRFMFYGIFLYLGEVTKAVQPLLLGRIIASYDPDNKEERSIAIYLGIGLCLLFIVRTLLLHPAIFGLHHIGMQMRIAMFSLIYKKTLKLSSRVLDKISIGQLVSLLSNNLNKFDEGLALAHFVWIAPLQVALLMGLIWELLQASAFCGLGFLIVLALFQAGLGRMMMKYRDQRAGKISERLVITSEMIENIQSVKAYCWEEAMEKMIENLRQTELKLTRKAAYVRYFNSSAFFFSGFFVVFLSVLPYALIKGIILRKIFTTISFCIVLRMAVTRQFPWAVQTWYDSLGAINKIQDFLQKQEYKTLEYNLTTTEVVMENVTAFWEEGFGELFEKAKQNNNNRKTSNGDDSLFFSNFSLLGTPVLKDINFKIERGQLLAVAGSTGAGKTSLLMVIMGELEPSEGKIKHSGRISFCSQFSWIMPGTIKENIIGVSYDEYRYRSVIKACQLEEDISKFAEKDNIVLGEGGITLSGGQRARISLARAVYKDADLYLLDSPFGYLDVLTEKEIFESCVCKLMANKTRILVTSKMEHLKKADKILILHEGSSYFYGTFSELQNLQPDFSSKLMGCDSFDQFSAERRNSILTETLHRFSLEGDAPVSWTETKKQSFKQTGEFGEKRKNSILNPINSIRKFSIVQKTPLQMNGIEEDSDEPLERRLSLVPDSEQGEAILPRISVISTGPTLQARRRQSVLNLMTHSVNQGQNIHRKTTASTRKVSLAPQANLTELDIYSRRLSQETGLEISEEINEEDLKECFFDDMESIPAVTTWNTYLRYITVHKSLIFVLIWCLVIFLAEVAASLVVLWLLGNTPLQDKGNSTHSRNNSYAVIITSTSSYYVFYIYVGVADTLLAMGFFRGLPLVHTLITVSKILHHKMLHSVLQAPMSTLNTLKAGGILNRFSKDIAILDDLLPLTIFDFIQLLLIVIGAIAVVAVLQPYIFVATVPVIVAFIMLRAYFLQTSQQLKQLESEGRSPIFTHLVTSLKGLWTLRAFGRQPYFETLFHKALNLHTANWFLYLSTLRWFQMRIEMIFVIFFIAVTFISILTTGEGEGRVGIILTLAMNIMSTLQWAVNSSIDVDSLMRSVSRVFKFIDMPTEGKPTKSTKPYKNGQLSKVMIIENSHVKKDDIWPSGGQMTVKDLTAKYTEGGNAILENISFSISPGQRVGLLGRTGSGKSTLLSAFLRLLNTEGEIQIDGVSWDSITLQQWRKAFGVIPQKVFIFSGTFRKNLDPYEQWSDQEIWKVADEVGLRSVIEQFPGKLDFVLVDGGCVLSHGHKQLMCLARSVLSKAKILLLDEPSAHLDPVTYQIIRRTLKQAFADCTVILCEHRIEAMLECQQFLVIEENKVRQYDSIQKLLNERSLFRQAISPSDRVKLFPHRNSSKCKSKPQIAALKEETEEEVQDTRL
- test-name: Membrane Potential Dye, Enteroid Assay B
- Format: cell-based
- experimental-parameters: Table 10
readout: Ent. B Max Activity (%)

| compound | Ent. B Max Activity (%) |
| --- | --- |
| Cc1cccc(C)c1-c1cc2nc(n1)NS(=O)(=O)c1cccc(c1)C(=O)N(c1cnn(C(C)(C)C)c1)[C@H](CC(C)(C)C)CO2 | +++ (+++ is >60%) |
| Cc1cccc(C)c1-c1cc2nc(n1)NS(=O)(=O)c1cccc(c1)C(=O)N(C1CC(C)(OC(F)(F)F)C1)[C@H](CC(C)C)CO2 (stereo partly drawn) [Compound 50] | ++ (++ is 30-60%) |
| Cc1cccc(C)c1-c1cc2nc(n1)NS(=O)(=O)c1cccc(c1)C(=O)N([C@H]1C[C@](C)(NC(=O)OC(C)C)C1)[C@H](CC(C)(C)C)CO2 (stereo in doubt) [Compound 245] | +++ (+++ is >60%) |
| CCN(C(=O)OC)C1CC(N2C(=O)c3cccc(c3)S(=O)(=O)Nc3nc(cc(-c4c(C)cccc4C)n3)OC[C@H]2CC(C)(C)C)C1 (single isomer, unassigned) [Compound 237] | ++ (++ is 30-60%) |
| Cc1cccc(C)c1-c1cc2nc(n1)NS(=O)(=O)c1cccc(c1)C(=O)N(c1cnn(C)c1)[C@H](CCC(C)C)CO2 | +++ (+++ is >60%) |

## Task Report Ent. B Max Activity (%) for [H][C@]1(N2C(=O)c3cccc(c3)S(=O)(=O)Nc3nc(cc(-c4c(C)cccc4C)n3)OC[C@H]2CC(C)C)C[C@@]2(C[C@H](NC(=O)OC(C)C)C2)C1 (single isomer, unassigned) [Compound 124] tested on CFTR (Homo sapiens, UniProt P13569).
## Result +++ (+++ is >60%)
